Below, each entry is listed alongside its reported IC50.
# Test system: THP-1 cells
# assay.details: TNFα generation assay
# Assay type: cell-based, human
# condition.set: Homo sapiens, THP-1, THP-1 cells; Table 22; read-out: IC50 in TNFα generation assay

Record excerpt, results attached:
compound: CCn1nc(C)c2cc(Nc3nc(N[C@H](CC4CC4)[C@H](C)N)c(F)cc3C(N)=O)ccc21
measured.on: THP-1 cells
IC50: 65 to 130 nM
--
compound: Cc1nn(CCF)c2cc(Nc3nc(N[C@H](CC4CC4)[C@H](C)N)c(F)cc3C(N)=O)ccc12
measured.on: THP-1 cells
IC50: 65 to 130 nM
--
compound: CC[C@@H](Nc1nc(Nc2ccnc(-c3cccc(OC)c3F)c2)c(C(N)=O)cc1F)[C@H](C)N
measured.on: THP-1 cells
IC50: < 65 nM

Short answer on THP-1 cells for CCC(N)CNc1nc(Nc2ccc3ncccc3c2)c(C(N)=O)cc1F (stereo not shown) , IC50: < 65 nM

Source listed as patent US8895585B2.
